Data provenance is the supplement of paper PMC10567573.

// reported protein stability index per item
# Method Notes: protein stability index of a GFP-peptide fusion (GPS, HEK-293T) (PSI 1-6); higher = more stable;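 further: 24-mer peptide tiles fused after GFP, lentivirally expressed, FACS-sorted into six equal bins by GFP/DsRed ratio, decoded by Illumina sequencing, PSI is the read-weighted mean bin number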
# Condition: treatment: DMSO; c terminus: a fixed tail appended

- Item Sequence: "SSGKVLPKWGWEQLEVTCTPYLKE [POMT2]"
  protein stability index: 2.64
- Item Sequence: "GRGNFPTLEITLKDIVQTVRSRLE [TENT5C]"
  protein stability index: 2.65
- Item Sequence: "TTLSFYGNSISISALQSLLQHLIG [PRAME]"
  protein stability index: 2.82
- Item Sequence: "TRHLKRLALMIQSSGNTVLLLILC [TMEM192]"
  protein stability index: 2.55
- Item Sequence: "VSRGPGVNVGTTALWKHLKSMHRE [ZBED2]"
  protein stability index: 3.22

// query # input sequence: YKNIKRPPGDIMFLLVQRFGELMR [USP39] ; wanted: its protein stability index
// result 2.29

// query What about this sequence? YLKKNHEEEMNALRGQVGGEINVE [KRT17]
// result 4.39

// query What about this sequence? NLVSVGYQAGKPDALTKLEQGEPL [ZNF649]
// result 4.39

---

// reported protein stability index per item
# Method Notes: protein stability index of a GFP-peptide fusion (GPS, HEK-293T) (PSI 1-6); higher = more stable
# Condition: treatment: DMSO; c terminus: a fixed tail appended
Write the value as a bare number.

- Item Sequence: "AHKCLECGKCFSQNTHLTRHQRTH [ZNF263]"
  Reported: 4.92
- Item Sequence: "LFQLSCSSTQLNELLLFAVGFIMA [OR3A1]"
  Reported: 2.71
- Item Sequence: "LALYTPVGAAGSARQELLGDRPRW [ANKRD9]"
  Reported: 3.28
- Item Sequence: "LQLYFWKDREFHELQGDFSVPDVP [VPS39]"
  Reported: 2.02
- Item Sequence: "SCLSSQSSALSQSGGGSTSAAGIE [SPACA3]"
  Reported: 4.78

// query # input sequence: NLFEGMIWFIVPISCVICNDIMAY [CDS2] ; wanted: its protein stability index
// result 3.44

// query What about this sequence? TTTVCLVAAALRYLQIFATRRSCI [FAM189A2]
// result 2.98

// query What about this sequence? GMRRKSLLTRKVICKSDAPTGDVL [GOLPH3]
// result 3.51

// query What about this sequence? AVVSCTPVHLVDKLPLPIALRSHL [RAB40B]
// result 2.65

---

# Method Notes: protein stability index of a GFP-peptide fusion (GPS, HEK-293T) (PSI 1-6); higher = more stable
# Condition: treatment: MLN4924 1 uM, 8 h; c terminus: a fixed tail appended
// reported protein stability index per item
Write the value as a bare number.

Would you please look over these solved cases?
- Item Sequence: "DITAYLFGFFFGRTPLIKLSPKKT [CDS1]"
  Reported: 2.73
- Item Sequence: "FACLSVLFVTVTAVNLSVSTLPSL [KCNG1]"
  Reported: 3.46
- Item Sequence: "SIRLPLDAPLPGSKAKPKPPKQAQ [TBC1D10A]"
  Reported: 4.72

// query # input sequence: QSNVLCSIFGICMVFSGLCPLLLG [PTGFR] ; wanted: its protein stability index
// result 2.63

// query What about this sequence? EERAAPVLSCEAATQTERRLDLAA [FAM189A2]
// result 4.99

// query What about this sequence? DQTGSKSSNLLDLKNPFFRYTGTT [CARM1]
// result 3.28

// query What about this sequence? DTRLRYSFFVPRPTPSTPRPTPQD [ADAMTS4]
// result 3.74

// query What about this sequence? PLHLAAQRGHYRVARILIDLCSDV [RIPK4]
// result 2.31

// query What about this sequence? GIFLFCVCVIAIGVVQALIVGYAF [TMEM175]
// result 2.33

// query What about this sequence? DSLKFAVLMWLLTYVGALFNGLTL [RTN1]
// result 3.38

// query What about this sequence? EMHFLENAKKLSMYGVDLHHAKDS [EPB41L3]
// result 2.8

// query What about this sequence? SLMPLQKSISPWKSPPQLRQFLPE [DENND6A]
// result 2.51

// query What about this sequence? CIENNIDLQVNRNFSLATNTKYSV [R3HDM1]
// result 2.31

// query What about this sequence? PETFWIQRAPQLPTWWPLPTQVPA [SPAG8]
// result 2.52

// query What about this sequence? MSREPTPPLPGDMSTGPIAESWCY [SPOPL]
// result 3.37

// query What about this sequence? CPLCTSDRGSCVSTTEGIQLAKEL [RHOBTB3]
// result 3.58

// query What about this sequence? VPWESDIWDINNQICTVKDIKAEP [ATF6]
// result 3.9

// query What about this sequence? HGNLSEEAAKQMRSRGKVLKTKDG [CPOX]
// result 5.41

// query What about this sequence? YSYMSPNKCSGMRFPLQEENSVTH [KMT5A]
// result 3.14

// query What about this sequence? YILLVGYPPFWDEDQHRLYQQIKA [CAMK2D]
// result 2.54

// query What about this sequence? QALKRKKRFEKQLTQIDGTLSTIE [CHMP4C]
// result 3.96

// query What about this sequence? ISFNKTMTQLSSTLARCAKDILGF [PKD2L1]
// result 2.62

// query What about this sequence? RQSSVTESTLYPNPYHQPYISRKY [TPRG1]
// result 3.67

// query What about this sequence? QFHCHKAVLASCSQYFRSLFSSHP [KLHL14]
// result 2.81

// query What about this sequence? RGQVGLVPKNYVVVLSDGPALHPA [NCK2]
// result 2.43

---

// reported protein stability index per item
# Method Notes: protein stability index of a GFP-peptide fusion (GPS, HEK-293T) (PSI 1-6); higher = more stable
# Condition: treatment: DMSO; c terminus: a fixed tail appended
Write the value as a bare number.

Would you please look over these solved cases?
- Item Sequence: "NSKKEEPQELLQSQDFVGEKLGSG [ATE1]"
  protein stability index: 5.51
- Item Sequence: "LLHNDEYQETMVESTFMYLTLDLP [USP39]"
  protein stability index: 2.31
- Item Sequence: "MGANTSRKPPVFDENEDVNFDHFE [STK32A]"
  protein stability index: 5.11
- Item Sequence: "ANVTLSLDTVEEVLSVSKILHIPQ [KLHL14]"
  protein stability index: 2.31

// query # input sequence: LGAEESLGLLDDYLEVAKHFKPHG [ATF4] ; wanted: its protein stability index
// result 3.24

// query What about this sequence? EERRVVHASGDASYSAGDSGDAAA [EPB41L3]
// result 5.49

// query What about this sequence? TLEELLPPNTRVLRVLPNLPCVVQ [PYCR3]
// result 2.28

// query What about this sequence? FEMLSGFPPFFDDNPFGIYQKILA [PRKX]
// result 2.47

// query What about this sequence? GVDWEHIRERPAAIPIEIKSIDDT [STK38L]
// result 4.68

// query What about this sequence? KIGYHLLYYLRASKAAAGKMNLYE [INTS3]
// result 2.3

// query What about this sequence? EGGTAVTGGQTVVNPWIIIGGVAT [SEPHS2]
// result 2.68

// query What about this sequence? CVDATRETNRLGRLINHSKCGNCQ [KMT5A]
// result 3.48

// query What about this sequence? GRTPLIKLSPKKTWEGFIGGFFAT [CDS2]
// result 1.91

---

# Method Notes: protein stability index of a GFP-peptide fusion (GPS, HEK-293T) (PSI 1-6); higher = more stable
# Condition: treatment: MLN4924 1 uM, 8 h; c terminus: a fixed tail appended
// reported protein stability index per item
Write the value as a bare number.

- Item Sequence: "TNEKMLKAVFGKHGPISEVLLIKD [RBMY1A1]"
  Reported: 2.96
- Item Sequence: "NGIGAVLDFTHPKARDWFQGHLRR [MYORG]"
  Reported: 2.64
- Item Sequence: "EMHTALMEACMDGHVEVARLLLDS [ANKRD17]"
  Reported: 2.55
- Item Sequence: "CGKSFSRSSHLVIHERTHERERLY [ZNF263]"
  Reported: 2.86
- Item Sequence: "TTTLEGSPSVPCIFCEEHFPVAEQ [ZNF277]"
  Reported: 4.32
- Item Sequence: "SLGKTNVKDDELDAMLKEASGPIN [MYL5]"
  Reported: 5.35

// query # input sequence: YLLQWLKSDKALMMLFNDGTFQVN [PLK2] ; wanted: its protein stability index
// result 2.53

// query What about this sequence? DQPVMAVKTGEDGSNLDDAKGLAE [FANCE]
// result 5.51

// query What about this sequence? MVPGTRHSAVLRDLRSGTLYSLTL [TNXB]
// result 2.03

// query What about this sequence? AEEFEQPTLSCEKYLTYDQLRKQK [ELOA2]
// result 4.9

// query What about this sequence? RSGRLILWEAPPLGAGGGSLLPGA [NEK8]
// result 3.11

// query What about this sequence? GMRRKSLLTRKVICKSDAPTGDVL [GOLPH3]
// result 3.53

// query What about this sequence? KMLLMYCAKMEKDGYGMTPLLSAS [FEM1C]
// result 2.11

// query What about this sequence? QSETQGLEGAQAPLAVEEDASSST [MAGEA10]
// result 5.52

// query What about this sequence? KQIAGGDVTAKNIWLAESVLDILT [INTS3]
// result 2.13

// query What about this sequence? LALYTPVGAAGSARQELLGDRPRW [ANKRD9]
// result 2.96

// query What about this sequence? RPCVPPSCHGYTLPGACNIPANVS [KRT33B]
// result 2.74

// query What about this sequence? WTQATGLGCALLAAHAVVLCALPV [SOAT2]
// result 2.97

// query What about this sequence? PREDGASVNDQCGFGVLRLDADAA [TSPAN10]
// result 4.15
